Target: human ASIC3 (hASIC3) (Homo sapiens, UniProt Q9UHC3)
Construct: expressed in transfected cells; host or cells: Xenopus laevis oocytes (injected)
Sequence (Q9UHC3 1-531): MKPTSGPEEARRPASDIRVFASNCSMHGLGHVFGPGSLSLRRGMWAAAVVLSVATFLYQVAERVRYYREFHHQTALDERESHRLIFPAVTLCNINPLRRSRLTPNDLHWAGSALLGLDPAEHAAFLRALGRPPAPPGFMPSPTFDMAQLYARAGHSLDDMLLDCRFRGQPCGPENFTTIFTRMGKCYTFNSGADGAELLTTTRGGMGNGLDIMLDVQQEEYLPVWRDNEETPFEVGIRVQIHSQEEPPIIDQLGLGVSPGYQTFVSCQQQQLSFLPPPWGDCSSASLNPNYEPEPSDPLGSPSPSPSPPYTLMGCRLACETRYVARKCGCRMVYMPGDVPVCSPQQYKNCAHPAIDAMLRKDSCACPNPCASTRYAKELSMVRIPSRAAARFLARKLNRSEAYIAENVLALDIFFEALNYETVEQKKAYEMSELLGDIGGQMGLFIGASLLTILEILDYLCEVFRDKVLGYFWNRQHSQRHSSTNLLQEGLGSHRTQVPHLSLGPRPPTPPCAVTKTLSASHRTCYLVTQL
Test: Activation of hASIC3 channels expressed in Xenopus laevis oocytes, whole-cell two electrode voltage clamp
Assay type: cell-based
Settings: hASIC3, holding pH 7.8, logistic fit, n = 5; read-out: EC50 of channel activation (EIA-induced sustained current)
From the text: The ability of EIAs to activate ASIC3 channels was studied in whole-cell configuration on oocytes of Xenopus laevis. THP and reticuline caused slowly activated sustained inward currents both in human (Figures 1A,B) and rat (Figures 1C,D) homomeric ASIC3 channels at resting pH 7.4 and above. In the case of human ASIC3 channels (hASIC3), the activating effect was greater and even exceeded the response of the cell to pH drop of 7.8–5.5 in control experiments (Figure 1A). […]

Compound: COc1ccc(CC2c3cc(O)c(OC)cc3CCN2C)cc1O (stereo not shown)
EC50 / µM: 560
